biological target: SV40 large T antigen (Tag) (Simian virus 40, UniProt P03070 1-708); experiment: EMSA
Sequence (P03070 whole entry): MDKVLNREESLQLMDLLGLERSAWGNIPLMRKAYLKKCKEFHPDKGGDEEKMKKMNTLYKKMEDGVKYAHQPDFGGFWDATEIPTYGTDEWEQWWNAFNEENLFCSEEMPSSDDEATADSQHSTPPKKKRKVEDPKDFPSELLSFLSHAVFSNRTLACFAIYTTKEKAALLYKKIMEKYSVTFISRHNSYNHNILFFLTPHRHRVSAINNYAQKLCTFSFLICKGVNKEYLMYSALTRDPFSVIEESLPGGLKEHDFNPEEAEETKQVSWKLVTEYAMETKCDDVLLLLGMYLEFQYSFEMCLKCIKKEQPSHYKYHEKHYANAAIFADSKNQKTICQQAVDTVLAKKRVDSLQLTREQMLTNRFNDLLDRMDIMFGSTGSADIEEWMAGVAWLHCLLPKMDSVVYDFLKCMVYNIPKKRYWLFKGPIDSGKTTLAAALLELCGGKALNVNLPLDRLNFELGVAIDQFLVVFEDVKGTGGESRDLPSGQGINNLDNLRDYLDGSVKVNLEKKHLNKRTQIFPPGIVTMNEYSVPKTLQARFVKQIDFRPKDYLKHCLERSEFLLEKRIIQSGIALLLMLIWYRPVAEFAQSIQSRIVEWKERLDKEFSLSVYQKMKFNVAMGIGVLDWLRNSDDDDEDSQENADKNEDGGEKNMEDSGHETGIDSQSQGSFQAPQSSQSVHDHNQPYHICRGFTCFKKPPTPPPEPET
property: Kd

Inquiry: Please report the measured Kd for ssDNA(GAPDH) (ssDNA) DNA: CGACAGTCAGCCGCATCTTCTTTTGCGTCGCCAGCCGAGCCCTATAGTGAGTCGTAT
Reply text: 80 nM

Cited source: paper PMC7144908
